Data origin, for the record: patent US20220064286A1

Target: T1, human TIGIT protein (human, UniProt Q495A1 22-141, limits assumed)
T1 construct: Recombinant protein (Genentech) used in ELISA screening and as SPR analyte; also called TIGIT antigen
T1 sequence: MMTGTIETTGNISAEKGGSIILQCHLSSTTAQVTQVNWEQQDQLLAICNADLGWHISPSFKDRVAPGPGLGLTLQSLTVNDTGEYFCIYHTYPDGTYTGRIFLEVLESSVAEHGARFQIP
Test: SPR, captured mAb
measuredEndpoint: koff (s⁻¹)
The answer is to be given in s⁻¹; state only the numeric part.

Some entries whose results are on file:
- binder: "h15C8.L1H6 (antibody, V domains shown, VH: L69I (printed L691) against h15C8.L1H1; FR/HVR pieces) VH: EVQLVQSGAEVKKPGASVKVSCKASGYTFTEHSIYWLRQAPGQRLEIIGRIDPKNGRTYFVDKFKNRATITTDTSASTAYMELSSLRSEDTAVYFCARIDGFYFDFWGQGTLVTVSS VL: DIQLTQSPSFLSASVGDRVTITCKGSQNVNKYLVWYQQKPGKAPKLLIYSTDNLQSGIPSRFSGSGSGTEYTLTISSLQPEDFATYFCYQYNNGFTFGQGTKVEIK"
  quantitativeReadout: 0.000756
- binder: "h7E7.L1H4 (antibody, V domains shown, VH: A67V against h7E7.L1H1; FR/HVR pieces) VH: EVQLVQSGAEVKKPGASVKVSCKASGYTFTEYSIYWVRQAPGQRLEIIGRIDPKNGRTYYVDKFKNRVTLTADTSASTAYMELSSLRSEDTAVYFCTRIYGFYFDFWGQGTLVTVSS VL: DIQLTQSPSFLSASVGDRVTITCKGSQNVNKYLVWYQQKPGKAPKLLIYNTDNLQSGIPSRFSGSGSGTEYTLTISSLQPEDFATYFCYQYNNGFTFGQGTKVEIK"
  quantitativeReadout: 0.000749
- binder: "h6B2.L2H5 (antibody, V domains shown, Fully humanized version; FR/HVR pieces in order) VH: EVTLKESGPALVKPTQTLTLTCTFSGFSLSTYGMGVSWIRQPPGKALEWLASIWWNGNTYYNPSLKSRLTITKDTSKNQVVLTMTNMDPVDTATYYCAHTGGAVITWFAYWGQGTLVTVSS VL: DIQMTQSPSSLSASVGDRVTITCKASQSVGKNIAWYQQKPGKAPKLLIYYASNRYTGVPSRFSGSGSGTDFTFTISSLQPEDIATYYCQHIYNSPYPFGQGTKVEIK"
  quantitativeReadout: 0.00222
- binder: "h10A5.L1H1 (antibody, V domains shown, Humanized; FR/HVR pieces in order; also called h1.10A5.L1H1) VH: EVTLKESGPALVKPTQTLTLTCTFSGFSLTTYGMGVSWIRQPPGKALEWLASIWWNGNTYYNPSLRSRLTVTKDTSKNQAVLTMTNMDPVDTATYYCAHTGGAVITWFAYWGQGTLVTVSS VL: EIVMTQSPATLSVSPGERATLSCKASQSVGKNIAWYQQKPGQSPRLLIYYASNRYTGVPARFSGSGSGTEFTLTISSLQSEDFAVYYCQHIYNSPYPFGQGTKVEIK"
  quantitativeReadout: 0.00238
- binder: "h15C8.L1H1 (antibody, V domains shown, First humanized version; FR/HVR pieces in order; also called h1.15C8.L1H1) VH: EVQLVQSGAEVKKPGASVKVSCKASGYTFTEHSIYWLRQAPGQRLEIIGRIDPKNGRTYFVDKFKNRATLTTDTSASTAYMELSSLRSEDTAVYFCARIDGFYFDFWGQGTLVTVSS VL: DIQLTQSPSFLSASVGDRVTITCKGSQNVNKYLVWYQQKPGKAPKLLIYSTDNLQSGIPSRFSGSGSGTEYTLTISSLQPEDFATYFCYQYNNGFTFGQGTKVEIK"
  quantitativeReadout: 0.000357

I have this binder here, h15C8.L2H1 (antibody, V domains shown, VL: I58V against h15C8.L1H1; FR/HVR pieces) VH: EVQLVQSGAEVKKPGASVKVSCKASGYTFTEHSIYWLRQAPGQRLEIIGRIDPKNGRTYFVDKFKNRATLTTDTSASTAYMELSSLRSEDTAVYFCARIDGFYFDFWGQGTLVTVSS VL: DIQLTQSPSFLSASVGDRVTITCKGSQNVNKYLVWYQQKPGKAPKLLIYSTDNLQSGVPSRFSGSGSGTEYTLTISSLQPEDFATYFCYQYNNGFTFGQGTKVEIK , and I need its recorded koff.
0.000506

I have this binder here, h15C8.L1H2 (antibody, V domains shown, VH: L37V against h15C8.L1H1; FR/HVR pieces) VH: EVQLVQSGAEVKKPGASVKVSCKASGYTFTEHSIYWVRQAPGQRLEIIGRIDPKNGRTYFVDKFKNRATLTTDTSASTAYMELSSLRSEDTAVYFCARIDGFYFDFWGQGTLVTVSS VL: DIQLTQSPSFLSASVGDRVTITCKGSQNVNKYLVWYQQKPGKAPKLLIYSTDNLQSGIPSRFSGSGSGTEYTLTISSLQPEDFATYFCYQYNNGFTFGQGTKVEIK , and I need its recorded koff.
0.00107

I have this binder here, rat10A5 (antibody, V domains shown, SD rat-derived; rat V domains as FR/HVR pieces; also called 1.10A5; Chimeric 1.10A5) VH: QVSLKESGPGILQPSHTLSLTCSFSGFSLTTYGMGVSWIRQPSEKGLEWLASIWWNGNTYYNPSLRSRLTVSKDTSNDQAFLNVTSVDTTDTATYYCAHTGGAVITWFAYWGQGTLVTVSS VL: NIVMTQSPKSMSISIGDRVTMNCKASQSVGKNIAWYQQKTGQSPQLLIYYASNRYTGVPDRFTGGGSGTDFTLTINSVQAEDAAFFYCQHIYNSPYPFGTGTKLEIK , and I need its recorded koff.
8.4e-05

I have this binder here, h15C8.L1H8 (antibody, V domains shown, VH: F91Y against h15C8.L1H1; FR/HVR pieces) VH: EVQLVQSGAEVKKPGASVKVSCKASGYTFTEHSIYWLRQAPGQRLEIIGRIDPKNGRTYFVDKFKNRATLTTDTSASTAYMELSSLRSEDTAVYYCARIDGFYFDFWGQGTLVTVSS VL: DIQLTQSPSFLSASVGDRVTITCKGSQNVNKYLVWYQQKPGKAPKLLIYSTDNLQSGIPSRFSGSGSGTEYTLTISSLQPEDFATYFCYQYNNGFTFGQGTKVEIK , and I need its recorded koff.
0.000381
